Biological target: Recombinant STAT3 protein (STAT3 (G127-I722)) (Homo sapiens)
Construct: Recombinant STAT3 protein (STAT3 (G127-I722))
Sequence (P40763 127-722): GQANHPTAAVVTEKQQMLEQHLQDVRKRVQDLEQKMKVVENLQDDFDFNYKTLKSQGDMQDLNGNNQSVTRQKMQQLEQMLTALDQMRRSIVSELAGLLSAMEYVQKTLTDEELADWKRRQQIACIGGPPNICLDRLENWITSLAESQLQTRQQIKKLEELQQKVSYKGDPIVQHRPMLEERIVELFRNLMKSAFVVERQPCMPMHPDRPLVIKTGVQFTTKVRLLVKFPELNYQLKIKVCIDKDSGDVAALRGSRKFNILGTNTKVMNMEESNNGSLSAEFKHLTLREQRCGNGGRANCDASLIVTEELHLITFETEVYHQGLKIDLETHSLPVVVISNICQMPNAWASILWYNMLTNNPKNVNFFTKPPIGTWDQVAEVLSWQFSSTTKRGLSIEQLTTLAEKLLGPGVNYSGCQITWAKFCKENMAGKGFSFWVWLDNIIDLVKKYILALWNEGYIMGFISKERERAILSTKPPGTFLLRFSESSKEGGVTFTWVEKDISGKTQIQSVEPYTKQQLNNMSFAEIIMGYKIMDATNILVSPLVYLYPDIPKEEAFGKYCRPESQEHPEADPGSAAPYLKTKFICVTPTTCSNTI
Experiment: STAT3 Fluorescence Polarization (FP) Assay
Type: binding
Conditions: STAT3 (G127-I722) 25 nM, probe 5-FAM-GpYLPQTV-NH2 2 nM, 45-minute incubation; read-out: STAT3 (FP assay IC50 class)
Experimental: STAT3 Fluorescence Polarization (FP) Assay An FP assay was developed to determine IC50 values for test substances. […] Reaction components were mixed, and FP was measured after 45-minute incubation at room temperature using a Tecan Spark multimode plate reader. FP signal (mP) was plotted against the log concentration of the test substances and IC50 values were calculated by nonlinear regression analysis using GraphPad Prism software. […]
pIC50: −log10 of the molar value.
Reported pIC50 values for a set of compounds

Worked cases, pIC50 given:
CN(Cc1cc[nH]c(=O)c1)C(=O)[C@@H]1CC[C@@H]2CCCC[C@H](NC(=O)c3cc4cc(C(F)(F)P(=O)(O)O)ccc4s3)C(=O)N21 :: 5.00 to 6.00
COc1cncc([C@@H]2CN(C(=O)[C@@H]3CC[C@@H]4CCC[C@H](NC(=O)c5cc6cc([C@H](F)P(=O)(O)O)ccc6s5)C(=O)N43)C3(CC3)[C@H]2C#N)c1 (single isomer, unassigned) [Compound 847] :: 5.00 to 6.00
O=C(N[C@H]1CCC[C@H]2CC[C@@H](C(=O)N3CC(c4cnccc4N4CCOCC4)C3)N2C1=O)c1cc2cc([C@@H](F)P(=O)(O)O)ccc2s1 (single isomer, unassigned) :: > 7.00
Cc1cc(C2CN(C(=O)[C@@H]3CC[C@@H]4CCCC[C@H](NC(=O)c5cc6cc(C(F)(F)P(=O)(O)O)ccc6s5)C(=O)N43)CC2C#N)cc(=O)[nH]1 (single isomer, unassigned) :: 5.00 to 6.00
O=C(N[C@H]1CCCC[C@H]2CC[C@@H](C(=O)NC(CO)c3c[nH]c4ncccc34)N2C1=O)c1cc2cc(C(F)(F)P(=O)(O)O)ccc2s1 (stereo partly drawn) :: 6.00 to 7.00

Param readout = pIC50; param system = Recombinant STAT3 protein (STAT3 (G127-I722)) (Homo sapiens); param query = C/C1=C/[C@H]2CC[C@@H](C(=O)N3CC(c4cnccc4C)C3)N2C(=O)[C@@H](NC(=O)c2cc3cc(C(F)(F)P(=O)(O)O)ccc3s2)CC1 ; response: value
> 7.00

Param readout = pIC50; param system = Recombinant STAT3 protein (STAT3 (G127-I722)) (Homo sapiens); param query = C[C@@H]1CC[C@H](NC(=O)c2ccc3ccc(CP(=O)(O)O)cc3c2)C(=O)N2[C@H](CC[C@H]2C(=O)N2CC(c3ccccc3)CC23CC3)C1 (stereo partly drawn) ; response: value
5.00 to 6.00

Param readout = pIC50; param system = Recombinant STAT3 protein (STAT3 (G127-I722)) (Homo sapiens); param query = Cc1ccccc1C1CN(C(=O)[C@@H]2CC[C@@H]3CCC[C@H](NC(=O)c4cc5cc(C(F)(F)P(=O)(O)O)ccc5s4)C(=O)N32)C1 ; response: value
> 7.00

Param readout = pIC50; param system = Recombinant STAT3 protein (STAT3 (G127-I722)) (Homo sapiens); param query = O=C(N[C@H]1CCCC[C@H]2CC[C@@H](C(=O)N3CC(c4cccnc4)CC34CC4)N2C1=O)c1cc2cc(C(F)P(=O)(O)O)ccc2s1 (stereo partly drawn) ; response: value
5.00 to 6.00

Param readout = pIC50; param system = Recombinant STAT3 protein (STAT3 (G127-I722)) (Homo sapiens); param query = O=C(N[C@H]1CCCC[C@H]2CC[C@@H](C(=O)N3CC4(CC(=O)c5nccn54)C3)N2C1=O)c1cc2cc(C(F)(F)P(=O)(O)O)ccc2s1 ; response: value
> 7.00

Data provenance: patent US20250215029A1
